Numbers sourced from the nanobody polyreactivity screen of Harvey et al. (2022).

# Protocol description: yeast display, Sf9 membrane polyspecificity reagent, FACS + sequencing; frameworks hold sequencing errors
Endpoint label: polyreactivity (PSR sort gate)

Recorded polyreactivity (PSR sort gate), per entry:
Macromolecule sequence: QVQLVESGGGLVQAGGSLRLSCAASGYIFLVYAMGWYRQAPGKERELVAAIDWSDTHTYYADSVKGRFTISRDNAKNTVYLHMNSLKPEDSAVYYCNADDYQYKTWYHLDYWGQGTQVTVSS
Observed result: low polyreactivity
--
Macromolecule sequence: QVQLVESGGGLVLAGGSLRLSGAASGRISGYNVLGWARQAAGKERELVAAISGSGGSTYYADSVKGRFTISRDNAKNTVYLQMNSLKPEDTADYYCGKATGYPYDYWGHGTQVTVSS
Observed result: low polyreactivity
--
Macromolecule sequence: QVQHVESGRGLVQAGGILRLTCAASGRTFEYYAMGWYRQAPGKERELVAAITYSGDSTYYADSVKGRFTISRDNAKNTFYLQMNSLKPEDTAVYYCAADWSSLKDDYWGQGTQVTVSS
Observed result: low polyreactivity
--
Macromolecule sequence: QVQLVESGGGLVQAGCSLRLSCAASGSTIYTYTMGWYRQAPGKERELVAAISSSGGDTYYADSVKGRFTISRDNAKNTVYLQMNSLKPEDTAVYYWDALGAFPSLEFDYWGQGTHVTVSS
Observed result: low polyreactivity
--
Macromolecule sequence: QVQLQESGGGLVQAGGSLRLSCAASGYISHADEMGWYRQAPGKEHELVASISNGGSTNYADSVKGRFTISRDNAKNTVYLQMNSLKSEDTAVYYCAAWTGQVDIHYYWGLGTQVTVSS
Observed result: low polyreactivity

-- ask Please give the documented polyreactivity (PSR sort gate) of QVQLVESGGGLLQAGGSLRLSCAASGRIFTLYDMGWYRQAPGKERELDAAISNSAGSTYYADSVKGRFTISLDNAKNTVYLQMNSLKTEDTAGYYCARSFSYWGYRSVYYWGQGTQVTVSS
-- reply high polyreactivity

-- ask Please give the documented polyreactivity (PSR sort gate) of QVQLVESGGGLVQAGGRLRLSCSASGSTFGYYAMGWYRQAHGKQRELDASITWTGGSTYYADSVKGRFTISRDNAKYTVYLLMNSLKPEDTAVYYCAAQLEASYWLWTGYGYLGQGTQVTVSS
-- reply high polyreactivity

-- ask Please give the documented polyreactivity (PSR sort gate) of QVQLLESGGGLVQAGGSLRLSCAASGSTFDWYVMGWYRQAPGKERELVAAINQGSGSTYYADSVKGRFTISRDNAKNTVYLQMNSLKPEDTAVYYCAADRYGAGYLYWPYDYWGQGTQVTVSS
-- reply low polyreactivity

-- ask Please give the documented polyreactivity (PSR sort gate) of QVQLEESGGGLVQAGGSLRLSCAASGIIFRLYGMGWYRQAPGKEREFVATITWRGGRTNYADSVKGRFTISRDNAKNTVYLQMNSLTPEDTAVYYCANVVRYARSNEYDSSGQGTQVTVSS
-- reply low polyreactivity

-- ask Please give the documented polyreactivity (PSR sort gate) of QVQLVESGGGLVHAGGSLRLSCAASGSTFKIYAMGLYRQAPGKERELVASIRGRGGSTYYADSVKGRFTISRDNAKNTVYLQMNSLKPEDTAVYYCNATYGHRYPACISYDYWGQGTQGTVSS
-- reply high polyreactivity

-- ask Please give the documented polyreactivity (PSR sort gate) of QVQLVESGGGIVQAGGSLRLSCAASGSTFGYYAMGWYRQAPGKERELVAAISWRGGSTYYADSVKGRFTISRDNAKNTVYLQMNSLKPEDTAVYYCAAQRGGPFPRVVDLYDYWGQGTQVTVSS
-- reply low polyreactivity

-- ask Please give the documented polyreactivity (PSR sort gate) of QDQLVESGGGLVQAGGSLRLSCAASGITFDYYVMGWYRKAPGKEMELVAAISWSGGTTYYADSVKGRFTISRDNAKNTVSLQMNSLKPEDTAVYYCNAEHTGSFYGGYPWEMEYWGQGTQVTVSS
-- reply low polyreactivity

-- ask Please give the documented polyreactivity (PSR sort gate) of QVQLVESGGGLVKAGGSLRLSCAASGSTIGGNAMVWYRQAPGKERELVASITRSGGSTYYADSVKGRFTISRDNAKNNVYLQMNSLKPEDSAVYYCAAGKWYRSPWKYDYWGQVTQVTVSS
-- reply low polyreactivity

-- ask Please give the documented polyreactivity (PSR sort gate) of QVQLVESGGGLVQAGGSLRLSCAASGSTFKVYAMGWYRQAPGKEMELDAAISRSGGRTYYADSVKGRFTISRDNAKNTVYLQMNSLKPEDTAVYYCNRDYTYSQGHYSGSYDYWGQGTQVTVSS
-- reply high polyreactivity

-- ask Please give the documented polyreactivity (PSR sort gate) of QVQLVESGGGLVQAGGSLRLSCAASGAIFPSYVMGWYRPAPGKERELVAAITKSTGTTYYADSVKGRFTISRDNAKNTVYLQMNSLKPEDTAVYYCAASGSWSTNTAIYKFYYWGQGTQVTVSS
-- reply low polyreactivity

-- ask Please give the documented polyreactivity (PSR sort gate) of QVQLVESGGGLVQAGGSLRLSCAASGSIFNLNAMGWYRQAPGKEREFVAGITYSAGRTYYADSVKGRFTISRDNAKNTVYLQMNSLKPEDTAVYYCAARIYSKFTSYGILDSWGQGTQVTVSS
-- reply high polyreactivity

-- ask Please give the documented polyreactivity (PSR sort gate) of QVQLVESGGGLVQAGGSLRLSCAASGFTYDLNAMGWYRQAPGKEREFVATISQSTGSTYYADSVKGRFTISRDNAKNTVYLQMNSLKPEDTAVYYCNKDRPYTLTWGLYEYWGQGTQVTVSS
-- reply low polyreactivity

-- ask Please give the documented polyreactivity (PSR sort gate) of QVQLVESGGGLVQAGGSLRLSCAASGSIFTYNAMGWYRQAPGKERELVAAISTSGGSTYYADSVKGRFTISRDNAKNTVYLQMNSLKPEDTAVYYCAAEYYVYPFWYGYWGQGTQVTVSS
-- reply high polyreactivity

-- ask Please give the documented polyreactivity (PSR sort gate) of QVQLVESGGGLVQAGGSLRLSCAASGRIFYLYTMGWYRQAPGKEREFSRYYADSVKGRFTISRDNAKNTVYLQMNCLKPEDTAVYSCAAADHPPVWYGYWGQGTHVTVSS
-- reply low polyreactivity

-- ask Please give the documented polyreactivity (PSR sort gate) of QVQLVDSGGRLVQAGGSLRLSCSASGIIIPSYAMGWYRQAPGKERELVAAISGRGGRTYYSDSVKGRFTISRDNAKNSVYLQMNSLKPEDTAVYYCAASGTSSSRKSYYWGQGTQVTVSS
-- reply high polyreactivity

-- ask Please give the documented polyreactivity (PSR sort gate) of QVQLVESGGGLVQAGGSLRLSCPASGFTFYGYAMGWYRQAPGKERELVAAIRYSGGSTYYADSVKGRFTISRDNAKNTVYLQMNSLKPEDTAVYYCNKRLIYYRGTYYSRRFDYWGQGTQVTVSS
-- reply high polyreactivity

###

# Protocol description: yeast display, Sf9 membrane polyspecificity reagent, FACS + sequencing; frameworks hold sequencing errors
Endpoint label: polyreactivity (PSR sort gate)

Recorded polyreactivity (PSR sort gate), per entry:
Macromolecule sequence: QVQLQESGGGLVQAGGSLRLSCAASSNNTTLDVMCWYRQAPGKEREFVASIGSGGITNYADSVKGRFTISRDNAKNTVYLQMNSLKPEDTAVYYCAVLNQAYTDLIYWGQGTQVTVSS
polyreactivity (PSR sort gate): high polyreactivity

Macromolecule sequence: QVQLVESGGGLVQAGGSLRFSCAASGRTFPSKTMGLYRQAPGKERELVAAISKNGGSTYYADSVKGRFTISRDNAKNTVYLQMNSLKPEDTAVYYCNRVRYPRVDYWGQGTQVTVSS
polyreactivity (PSR sort gate): high polyreactivity

Macromolecule sequence: QVQLVESGGGLVQAGGSLRITCAASGSIFTGNAMGWYRQAPGKERELVAAISSSGGSTYYADSVKGRFTLSRDNAKNTVYLQMNSMKPEDTAVYYCAAYNNFLQYDYWGQGTQVTVSS
polyreactivity (PSR sort gate): low polyreactivity

Macromolecule sequence: QVQLVESGGGLVQAGGSLRLSCVASGRIFWANAIGWYRQAPGKERELVAAITYSGGTTYYADSVKGRFTISRDNAKNTVYLQMNSLKPEATAVYYCAKVGRGNNYWGQGTQVTVSS
polyreactivity (PSR sort gate): high polyreactivity

Macromolecule sequence: QVQLVESGGGLVQAGGSLRLSCAASGLIFVVYAMGWYRPAPGKERELVADISSGGRTSYADSVKGRFTISRDNAKNTVYLQMNSLKPEDTAVYYCNAYPVFNQYYGWRYDYWGQGTQVTVSS
polyreactivity (PSR sort gate): low polyreactivity

Macromolecule sequence: QVQLVESGGGLVQAGGSLRLSCAASGRIFLLNAMGWYRQAPGKERELVARISSGRTYYADSVKGRFTISRDNAKNTVYLQMNSLKPEDTAVYYCNATVSSSKYRYFYVNPYDYWGQGTQVTVSS
polyreactivity (PSR sort gate): low polyreactivity

Macromolecule sequence: QVQLVESGGGLVQAGGSLRLSCAASGIIFVENPMGWYRQAPGKERELVATITSGDTTNYADSVKGRFTISRDNAKNTVYLHMNSLKAEDTAVYYCAAERYEDFTEYDYWGQGTQVTVSS
polyreactivity (PSR sort gate): low polyreactivity

Macromolecule sequence: QVQREESGGGLVQAGGSLRLSCAASGFTFRYYAMGRYRQAPGKERELVAAITWSGGSTYYADSVKGRFTISRDNAKNTVYLQLNSLKPEDTAVYYCNVEAVAWWPEEDYWGQGTQVTVSS
polyreactivity (PSR sort gate): high polyreactivity

Macromolecule sequence: QVQLVESGGGLVQAGGSLRLSCAPSGRIFSYNTVMGWYRQAPGKERELVAAITYSSASTYYADSVKGRFTISRDNAKNTVYLQMNSLKPEDTAVYYCAAVRYERGLWSDYWGQGTQVTVSS
polyreactivity (PSR sort gate): high polyreactivity

Macromolecule sequence: QVQLVESGGGLVQAGGSLRLSCAASGRTFDFYAMGWYRQAPGKERELVASIDWDGGSTYYADSVKGRFTISRDNAKNTVYLQMNSLKPEDTAVYYCAKDGQKFTSSLYDYWGQGTQVTVSS
polyreactivity (PSR sort gate): low polyreactivity

Could you now look at the following sequence, please?
-- ask Please give the documented polyreactivity (PSR sort gate) of QVQLVESGGGLVQAGGSLRLSCAASGFIFVYNAMGWYRPAPGKERELVAAIDYGGGSTTYADSVKGRFTISRDNAKNTVYLQMNSLKPEDTAVYYCAAYYRYLDDIYEYEYWGQGTQVTVSS
-- reply low polyreactivity
